Form field: IC50 (one value per entry).
Molecular target: PTP1B (human, recombinant) (Homo sapiens)
Sequence (P18031 1-435): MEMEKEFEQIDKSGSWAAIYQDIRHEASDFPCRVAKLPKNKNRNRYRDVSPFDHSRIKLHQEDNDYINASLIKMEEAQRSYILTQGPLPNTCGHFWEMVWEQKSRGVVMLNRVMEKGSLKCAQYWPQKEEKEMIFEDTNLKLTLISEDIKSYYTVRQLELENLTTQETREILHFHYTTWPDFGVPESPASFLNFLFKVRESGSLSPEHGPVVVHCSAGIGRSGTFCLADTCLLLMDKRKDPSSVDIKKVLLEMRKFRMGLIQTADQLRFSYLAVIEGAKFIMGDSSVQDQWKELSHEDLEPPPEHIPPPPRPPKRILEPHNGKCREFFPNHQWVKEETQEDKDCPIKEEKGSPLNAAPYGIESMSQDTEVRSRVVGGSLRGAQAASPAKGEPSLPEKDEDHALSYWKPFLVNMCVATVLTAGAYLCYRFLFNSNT
Experiment: PTP1B assay (pNPP hydrolysis)
Conditions: 2 mM pNPP, pH 6.0, 30 °C, 30 min; read-out: PTP1B inhibitory activity IC50
Description: PTP1B (human, recombinant) was purchased from BIOMOL Research Laboratories, Inc. Enzyme activity was measured in a reaction mixture containing 2 mM p-nitrophenyl phosphate (pNPP) in 50 mM citrate, pH 6.0 (composition: 0.1 M NaCl, 1 mM EDTA, and 1 mM dithiothreitol (DTT)). […] The amount of p-nitrophenol produced was estimated by measuring the increase in absorbance at 405 nm. […]
Property label: IC50 (µM)

INSERT INTO assay_data (compound, unit_name, cmp, result_number) VALUES
  ('COc1cc(/C=C/c2ccccc2)oc(=O)c1C', 'µM', '=', 5.28),
  ('CC1=Cc2oc3cc(O)c(O)c(C(=O)O)c3c(=O)c2CO1 [Anhydrofulvic acid (2), anhydrofulvic acid]', 'µM', '=', 1.9),
  ('Cc1cc(=O)c2c(o1)-c1c(cc(O)c(O)c1C(=O)O)OC2', 'µM', '>', 25.8);

Ref: paper PMC3705412
